- protocol.notes: Quantitative High-Throughput drug screen in 47 multiple myeloma cell lines against the NCATS MIPE library collection: KMS11_JCRBsus cell viability assay (AID 1919873); also: nearly all actives have a fitted effect of over 50% in size
- details: KMS11 myeloma viability, CellTiter-Glo ATP luminescence, 48 h; series mostly up to 45.8 µM
Inconclusive results are not listed. Active and inactive are the calls of the source. Calls follow the shape of the dose curve; as a rule, active = well fitted cell-killing curve with a large enough effect; inconclusive = small, poorly fitted or top-dose-only effect, or effect the other way; inactive = no such curve, though single readings can be large or run the other way.
Result category, one only: 1 (yes) for active, 0 (no) for inactive

Consider the worked cases shown below.
INSERT INTO assay_data (chemical_structure, classification) VALUES
  ('COc1cc([C@@H]2c3cc4c(cc3[C@@H](O[C@@H]3O[C@@H]5CO[C@@H](c6cccs6)O[C@@H]5[C@H](O)[C@@H]3O)[C@H]3COC(=O)[C@H]23)OCO4)cc(OC)c1O', '1 (yes)'),
  ('CC(C)(N)c1ccc(-c2nc3ccccc3nc2-c2ccccc2)cc1', '1 (yes)');

Q: Entry O=c1ccn([C@@H]2O[C@H](CO)[C@H](O)[C@@H]2F)c(=O)[nH]1 : call = ?
Ans: 0 (no)

Q: Entry CCCCCN=C(N)NN=Cc1c[nH]c2ccc(OC)cc12 : call = ?
Ans: 1 (yes)

Q: Entry CCS(=O)(=O)Nc1ccc2[nH]c(O)c(C(=Nc3ccc(CN4CCCCC4)cc3)c3ccccc3)c2c1 : call = ?
Ans: 1 (yes)

Q: Entry Oc1cc(-c2nc(-c3ccccc3)[nH]c2-c2ccncc2)ccc1Cl : call = ?
Ans: 1 (yes)

Just for reference, PubChem BioAssay (NCATS) is where these values come from.
